# COMPOUND, melting point
records = [
    ("O=S1(=O)CCC2=C1C(c1ccc(F)c(Cl)c1)C=C(C(F)(F)F)N2 (centres unmarked)", "180 to 183 °C"),
    ("O=C1CCC2=C1C(c1ccc(Br)cc1)C1=C(CCS1(=O)=O)N2 (centres unmarked)", "253 to 256 °C"),
    ("O=C1CCCC2=C1C(c1ccc(Cl)c(C(F)(F)F)c1)C1=C(CCS1(=O)=O)N2 (centres unmarked)", "> 250 °C"),
    ("O=[N+]([O-])c1cccc(C2C3=C(CCCS3(=O)=O)NC3=C2S(=O)(=O)CCC3)c1", "> 260 °C"),
    ("O=C1CCC2=C1C(c1cccc([N+](=O)[O-])c1)C1=C(CCCS1(=O)=O)N2 (centres unmarked)", "> 260 °C"),
    ("O=S1(=O)CCC2=C1C(c1ccc(Br)c(Br)c1)C1=C(CCS1(=O)=O)N2", "> 260 °C"),
    ("N#Cc1cccc(C2C3=C(CCS3(=O)=O)NC3=C2S(=O)(=O)CC3)c1", "248 °C"),
    ("N#Cc1cccc(C2C3=C(CCC3=O)NC3=C2S(=O)(=O)CC3)c1 (single isomer, unassigned; (-)) [Example 162]", "> 250 °C"),
]
